# Assay system: EZH2 (Homo sapiens (Human))
Where a name gives a salt, the structure may show the parent alone.
Give pIC50 for every item shown.
One number for each entry, as −log10 of the molar value.

CSc1cc(C)[nH]c(=O)c1CNC(=O)c1cc(Cl)c2c(c1C)OC(C)([C@H]1CC[C@@H](NC(=O)C3CC(F)(F)C3)CC1)O2 (single isomer, unassigned) [Compound 6, isomer 1]; 9.28
CSc1cc(C)[nH]c(=O)c1CNC(=O)c1cc(Cl)c2c(c1C)OC(C)([C@H]1CC[C@@H](NCC3(C)COC3)CC1)O2 (single isomer, unassigned) [Compound 3, isomer 2, trifluoroacetate]; 9.29
CSc1cc(C)[nH]c(=O)c1CNC(=O)c1cc(Cl)c2c(c1C)OC(C)([C@H]1CC[C@@H](NC(=O)C3CC(F)(F)C3)CC1)O2 (single isomer, unassigned) [Compound 6, isomer 2]; 9.19
CSc1cc(C)[nH]c(=O)c1CNC(=O)c1cc(Cl)c2c(c1C)OC(C)([C@H]1CC[C@@H](NC3CC(F)(F)C3)CC1)O2 (single isomer, unassigned) [Compound 4, isomer 1]; 9.34

# context switch: different compound, same pIC50
Measured pIC50, CSc1cc(C)[nH]c(=O)c1CNC(=O)c1cc(Cl)c2c(c1C)OC(C)(C1CCC(N[C@H]3C[C@H](O)C3)CC1)O2 (single isomer, unassigned) [Compound 45, isomer 2] : 9.46

====

# Assay notes: Pharmacokinetic experiment in mice (intravenous 5 mg/kg or intragastric 30 mg/kg)
# Type: in vivo
# Test context: male, ICR, mouse, plasma, po, 30 mg/kg, PO 30 mg/kg, read-out: Cmax
Measurement name: Cmax

[2H]C([2H])(NC(=O)c1cc(Cl)c2c(c1C)OC(C)(C1CCN(CC3CC3)CC1)O2)c1c(SC)cc(C)[nH]c1=O (centres unmarked) [Compound 27]; 0.865 µg/mL

GET /value?item= Cc1cc(C)c(CNC(=O)c2cc(Cl)c3c(c2C)O[C@@](C)([C@H]2CC[C@H](N(C)C)CC2)O3)c(=O)[nH]1 [Compound I-2, Valemetostat, reference compound] &field=Cmax returns 0.262 µg/mL

====

# Assay system: EZH2 (Homo sapiens (Human), UniProt Q15910)
# Sequence (Q15910 other isoform, or with tags, fused parts or gaps isoform Q15910-2): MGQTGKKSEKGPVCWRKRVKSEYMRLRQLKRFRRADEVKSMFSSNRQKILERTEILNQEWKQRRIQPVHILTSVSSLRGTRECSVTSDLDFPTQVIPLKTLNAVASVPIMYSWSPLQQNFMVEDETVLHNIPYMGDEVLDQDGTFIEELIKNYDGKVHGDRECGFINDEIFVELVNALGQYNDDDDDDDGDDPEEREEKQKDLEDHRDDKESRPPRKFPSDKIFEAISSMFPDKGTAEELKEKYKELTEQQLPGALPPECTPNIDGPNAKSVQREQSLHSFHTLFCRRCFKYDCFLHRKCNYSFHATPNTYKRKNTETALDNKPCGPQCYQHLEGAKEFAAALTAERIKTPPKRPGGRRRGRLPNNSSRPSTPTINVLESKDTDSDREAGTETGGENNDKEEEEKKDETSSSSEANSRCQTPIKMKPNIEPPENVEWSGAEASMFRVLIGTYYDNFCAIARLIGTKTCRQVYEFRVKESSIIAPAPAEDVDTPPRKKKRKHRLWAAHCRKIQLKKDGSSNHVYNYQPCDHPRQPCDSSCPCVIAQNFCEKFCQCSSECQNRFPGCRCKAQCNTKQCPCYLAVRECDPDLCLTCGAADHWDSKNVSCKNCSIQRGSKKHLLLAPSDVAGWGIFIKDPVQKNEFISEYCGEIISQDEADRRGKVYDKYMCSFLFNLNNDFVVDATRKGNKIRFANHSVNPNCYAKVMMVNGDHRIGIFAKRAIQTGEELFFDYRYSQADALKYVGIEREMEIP
# Sequence (O75530 2-441 partner): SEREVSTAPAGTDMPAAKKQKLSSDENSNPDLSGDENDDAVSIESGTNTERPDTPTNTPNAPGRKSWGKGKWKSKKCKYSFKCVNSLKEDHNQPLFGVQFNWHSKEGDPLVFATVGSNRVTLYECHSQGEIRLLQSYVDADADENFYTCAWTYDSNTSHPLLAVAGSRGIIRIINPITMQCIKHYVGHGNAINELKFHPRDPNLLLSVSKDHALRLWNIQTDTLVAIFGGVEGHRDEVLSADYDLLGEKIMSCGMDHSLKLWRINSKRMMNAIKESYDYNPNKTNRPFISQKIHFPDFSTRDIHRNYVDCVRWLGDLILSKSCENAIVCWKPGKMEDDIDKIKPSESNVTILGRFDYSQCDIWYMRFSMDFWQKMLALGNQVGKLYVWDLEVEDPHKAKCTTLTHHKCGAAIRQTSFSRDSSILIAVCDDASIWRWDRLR
# Sequence (Q15022 2-739 partner): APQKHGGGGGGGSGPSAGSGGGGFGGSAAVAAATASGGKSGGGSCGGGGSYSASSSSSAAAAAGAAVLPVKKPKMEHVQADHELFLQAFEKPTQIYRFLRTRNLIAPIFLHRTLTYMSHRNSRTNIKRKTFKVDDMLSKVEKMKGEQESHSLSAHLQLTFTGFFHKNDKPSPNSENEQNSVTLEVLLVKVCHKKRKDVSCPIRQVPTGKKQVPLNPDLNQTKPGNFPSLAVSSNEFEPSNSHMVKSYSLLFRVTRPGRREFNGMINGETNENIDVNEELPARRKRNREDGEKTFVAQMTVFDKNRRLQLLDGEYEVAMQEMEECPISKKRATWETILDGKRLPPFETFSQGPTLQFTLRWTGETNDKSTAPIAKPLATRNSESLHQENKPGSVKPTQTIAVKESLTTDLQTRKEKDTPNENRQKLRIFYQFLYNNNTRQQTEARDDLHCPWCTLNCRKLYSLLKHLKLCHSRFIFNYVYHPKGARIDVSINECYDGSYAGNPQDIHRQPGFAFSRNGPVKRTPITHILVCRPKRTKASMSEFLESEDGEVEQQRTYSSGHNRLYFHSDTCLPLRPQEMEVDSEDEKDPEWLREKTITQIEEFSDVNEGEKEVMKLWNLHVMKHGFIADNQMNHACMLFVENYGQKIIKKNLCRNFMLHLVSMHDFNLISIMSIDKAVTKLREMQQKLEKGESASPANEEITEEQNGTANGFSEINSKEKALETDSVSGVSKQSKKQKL
# Sequence (Q09028 2-425 partner): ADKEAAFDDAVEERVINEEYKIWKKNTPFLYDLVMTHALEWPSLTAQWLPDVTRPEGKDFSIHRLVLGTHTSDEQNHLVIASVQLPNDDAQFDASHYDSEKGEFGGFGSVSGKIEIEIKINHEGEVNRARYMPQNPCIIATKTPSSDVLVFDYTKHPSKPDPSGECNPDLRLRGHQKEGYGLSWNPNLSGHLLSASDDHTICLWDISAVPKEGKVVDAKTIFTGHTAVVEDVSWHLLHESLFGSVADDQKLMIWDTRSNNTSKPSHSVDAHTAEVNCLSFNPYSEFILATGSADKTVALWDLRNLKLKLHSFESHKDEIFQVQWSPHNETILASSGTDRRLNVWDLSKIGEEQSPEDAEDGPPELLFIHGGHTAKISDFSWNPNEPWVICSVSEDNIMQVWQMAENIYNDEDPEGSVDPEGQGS
# Sequence (Q6ZN18 whole entry partner): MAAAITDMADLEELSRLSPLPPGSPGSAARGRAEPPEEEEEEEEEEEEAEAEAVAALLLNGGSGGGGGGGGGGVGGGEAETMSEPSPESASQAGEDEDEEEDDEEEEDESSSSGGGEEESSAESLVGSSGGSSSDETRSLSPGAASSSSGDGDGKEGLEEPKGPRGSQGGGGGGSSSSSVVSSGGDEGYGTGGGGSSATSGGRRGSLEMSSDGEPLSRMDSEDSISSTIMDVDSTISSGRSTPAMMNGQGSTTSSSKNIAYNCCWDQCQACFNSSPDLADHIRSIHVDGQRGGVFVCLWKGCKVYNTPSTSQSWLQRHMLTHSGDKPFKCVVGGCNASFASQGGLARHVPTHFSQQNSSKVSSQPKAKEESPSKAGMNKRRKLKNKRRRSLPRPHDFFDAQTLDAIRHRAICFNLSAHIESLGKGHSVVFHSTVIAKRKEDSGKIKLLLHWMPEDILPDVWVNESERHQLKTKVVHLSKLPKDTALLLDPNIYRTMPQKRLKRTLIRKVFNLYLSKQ
Exercise: state measured pIC50 for each of the molecules provided.
Answers are plain numbers, as −log10 of the molar value.

// worked examples, pIC50 included
CSc1cc(C)[nH]c(=O)c1CNC(=O)c1cc(Cl)c2c(c1C)OC(C)([C@H]1CC[C@H](CNC3CC(F)(F)C3)CC1)O2 (single isomer, unassigned) [Compound 40, isomer 1]; 9.21
[2H]C([2H])(NC(=O)c1cc(Cl)c2c(c1C)OC(C)(C1CCN(CC3CC(F)(F)C3)CC1)O2)c1c(SC)cc(C)[nH]c1=O (centres unmarked); 9.31
[2H]C([2H])(NC(=O)c1cc(Cl)c2c(c1C)OC(C)(C1CCN(CC3CC3)CC1)O2)c1c(SC)cc(C)[nH]c1=O (centres unmarked); 9.28
CSc1cc(C)[nH]c(=O)c1CNC(=O)c1cc(Cl)c2c(c1C)OC(C)([C@H]1CC[C@@H](N3CC[Si](C)(C)CC3)CC1)O2 (single isomer, unassigned) [Compound 49, isomer 2]; 9.49
CSc1cc(C)[nH]c(=O)c1CNC(=O)c1cc(Cl)c2c(c1C)OC(C)([C@H]1CC[C@@H](NC3CC(F)(F)C3)CC1)O2 (single isomer, unassigned) [Compound 4, isomer 2]; 9.25

Each of the following entries comes with a recorded value; kindly state pIC50 for each.
1. CSc1cc(C)[nH]c(=O)c1CNC(=O)c1cc(Cl)c2c(c1C)OC(C)(C1CCN(C3CC3)CC1)O2 (centres unmarked)
2. [2H]C([2H])(NC(=O)c1cc(Cl)c2c(c1C)OC(C)(C1CCC(NC3COC3)CC1)O2)c1c(SC)cc(C)[nH]c1=O (single isomer, unassigned) [Compound 59, isomer 2]
3. CSc1cc(C)[nH]c(=O)c1CNC(=O)c1cc(Cl)c2c(c1C)OC(C)(C1CCC(c3cnn(C)c3)CC1)O2 (single isomer, unassigned) [Compound 8, isomer 2]
4. CSc1cc(C)[nH]c(=O)c1CNC(=O)c1cc(Cl)c2c(c1C)OC(C)(C1CCN(CC3(C#N)CC3)CC1)O2 (centres unmarked)
5. CSc1cc(C)[nH]c(=O)c1CNC(=O)c1cc(Cl)c2c(c1C)OC(C)(C1CCC(NC3COC3)CC1)O2 (single isomer, unassigned) [Compound 61, isomer 2]

## Output
[9.24, 9.36, 9.05, 9.18, 9.60]

Parameters: items (list). Returns: pIC50 for each item.
1. CSc1cc(C)[nH]c(=O)c1CNC(=O)c1cc(Cl)c2c(c1C)OC(C)([C@H]1CC[C@@H](c3ccccn3)CC1)O2 (single isomer, unassigned) [Compound 39, isomer 2]
2. CSc1cc(C)[nH]c(=O)c1CNC(=O)c1cc(Cl)c2c(c1C)OC(C)([C@H]1CC[C@@H](N3CC(N4CCCC4)C3)CC1)O2 (single isomer, unassigned) [Compound 43, isomer 2]
3. CSc1cc(C)[nH]c(=O)c1CNC(=O)c1cc(Cl)c2c(c1C)OC(C)([C@H]1CC[C@H](N[C@H]3C[C@@H](F)C3)CC1)O2 (single isomer, unassigned) [Compound 41, isomer 1]
4. CSc1cc(C)[nH]c(=O)c1CNC(=O)c1cc(Cl)c2c(c1C)OC(C)([C@H]1CC[C@@H](c3ccccn3)CC1)O2 (single isomer, unassigned) [Compound 39, isomer 1]
5. CSc1cc(C)[nH]c(=O)c1CNC(=O)c1cc(Cl)c2c(c1C)OC(C)(C1CCC(N[C@H]3C[C@H](O)C3)CC1)O2 (single isomer, unassigned) [Compound 45, isomer 1]
6. CSc1cc(C)[nH]c(=O)c1CNC(=O)c1cc(Cl)c2c(c1C)OC(C)(C1CCN(CC3CC(F)(F)C3)CC1)O2 (single isomer, unassigned) [Compound 10, isomer 1]
7. [2H]C([2H])(NC(=O)c1cc(Cl)c2c(c1C)OC(C)(C1CCC(NC3COC3)CC1)O2)c1c(SC)cc(C)[nH]c1=O (single isomer, unassigned) [Compound 59, isomer 1]

## Output
[9.24, 9.38, 9.28, 9.38, 9.55, 9.25, 9.24]

Batch lookup, pIC50 per entry.
1. CSc1cc(C)[nH]c(=O)c1CNC(=O)c1cc(Cl)c2c(c1C)OC(C)(C1CCC(N3CCC4(CNC(=O)C4)C3)CC1)O2 (single isomer, unassigned) [Compound 18, isomer 2]
2. CO[C@H]1C[C@H](NC2CCC(C3(C)Oc4c(Cl)cc(C(=O)NCc5c(SC)cc(C)[nH]c5=O)c(C)c4O3)CC2)C1 (single isomer, unassigned) [Compound 9, isomer 2]
3. CSc1cc(C)[nH]c(=O)c1CNC(=O)c1cc(Cl)c2c(c1C)OC(C)([C@H]1CC[C@@H](N3CC(N4CCCC4)C3)CC1)O2 (single isomer, unassigned) [Compound 43, isomer 1]

## Output
[9.11, 9.32, 9.31]
